Some molecules, each annotated with its measured IC50.
molecular target: Protein Wnt-3a (Mus musculus, UniProt P27467); experiment: Wnt3a-driven reporter signaling inhibition, dose response, selectivity assay for Gli-SUFU antagonist project, Wnt-LIGHT cells, luminescence (AID 651570); format: functional; conditions: read-out: IC50_Mean;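 note: Wnt-LIGHT reporter cells stimulated with conditioned medium from Wnt3a-producing cells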
Sequence (P27467 whole entry): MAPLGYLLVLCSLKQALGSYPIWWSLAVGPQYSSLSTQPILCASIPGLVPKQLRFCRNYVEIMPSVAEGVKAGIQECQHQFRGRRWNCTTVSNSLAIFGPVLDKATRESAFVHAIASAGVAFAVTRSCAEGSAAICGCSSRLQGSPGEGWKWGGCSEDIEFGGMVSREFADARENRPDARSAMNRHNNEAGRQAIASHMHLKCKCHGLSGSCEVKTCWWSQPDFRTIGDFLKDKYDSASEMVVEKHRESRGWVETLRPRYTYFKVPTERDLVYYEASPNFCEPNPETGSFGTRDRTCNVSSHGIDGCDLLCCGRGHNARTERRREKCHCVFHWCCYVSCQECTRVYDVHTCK
The source made the active and inactive calls. Cut-off read from the data, not from the text of the source: active = IC50 of 20 µM or less and inactive = more.

Worked examples, 3 molecules total:
[
  {
    "MOLECULE": "CCOc1ccc(OCc2ccc(C(=O)NN=Cc3ccc[nH]3)cc2)cc1",
    "IC50": "5.48 µM (active)"
  },
  {
    "MOLECULE": "Clc1ccc(-c2c[n+](-c3ccc(Cl)cc3)c3n2CCCCC3)cc1",
    "IC50": "26.4 µM (inactive)"
  },
  {
    "MOLECULE": "CCCCCn1c(=N)n(CC(O)COc2ccccc2OC)c2ccccc21 (centres undefined)",
    "IC50": "8.95 µM (active)"
  }
]

We now examine a further molecule.
Exercise: Determine its reported IC50: "O=C(/C=C/c1ccco1)Nc1ccc(-c2nc3ccccc3[nH]2)cc1"
Solution: 14.6 µM (active)
